Target: Humicola insolens cellobiose dehydrogenase, wild type (major form, 92 kDa, pI 4.0, purified from CELLUZYME), SEQ ID NO:2 (Mycothermus thermophilus)
Construct: mature 22-785 after 21-residue signal peptide
Sequence (Q9P8H5 22-785): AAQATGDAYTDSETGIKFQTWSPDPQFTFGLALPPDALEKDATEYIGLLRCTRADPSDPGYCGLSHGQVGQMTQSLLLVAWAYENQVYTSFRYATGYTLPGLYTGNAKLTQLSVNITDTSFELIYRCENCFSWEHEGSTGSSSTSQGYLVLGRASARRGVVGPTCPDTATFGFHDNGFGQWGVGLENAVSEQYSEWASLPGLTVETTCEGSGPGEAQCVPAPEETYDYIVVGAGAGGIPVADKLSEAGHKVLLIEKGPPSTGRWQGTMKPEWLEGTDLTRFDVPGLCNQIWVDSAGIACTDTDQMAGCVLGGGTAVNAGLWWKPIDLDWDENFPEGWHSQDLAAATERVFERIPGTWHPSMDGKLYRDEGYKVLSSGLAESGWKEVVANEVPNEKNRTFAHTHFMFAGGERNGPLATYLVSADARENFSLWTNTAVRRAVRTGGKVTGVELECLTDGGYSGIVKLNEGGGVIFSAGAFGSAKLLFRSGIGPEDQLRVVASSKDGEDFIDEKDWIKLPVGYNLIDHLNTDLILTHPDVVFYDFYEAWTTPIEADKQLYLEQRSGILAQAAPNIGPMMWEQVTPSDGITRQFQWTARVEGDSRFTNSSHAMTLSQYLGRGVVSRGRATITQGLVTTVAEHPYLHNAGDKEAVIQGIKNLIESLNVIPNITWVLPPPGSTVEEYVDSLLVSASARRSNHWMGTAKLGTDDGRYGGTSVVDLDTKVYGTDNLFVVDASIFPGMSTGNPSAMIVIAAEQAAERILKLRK
Experiment: Steady-state kinetics of cellobiose dehydrogenase with electron donors and acceptors (Lineweaver-Burke plots)
Format: biochemical
Settings: sugar + 90 μM DCPIP; 0.1 M sodium phosphate pH 7.5, 40° C.; mol of oxidized cellobiose/s/mol of enzyme
PROPERTY MEASURED: kcat (electron donor sugar) (s⁻¹)
Respond numerically; units are s⁻¹ and should not be typed.

>>> value_measured("CC(=O)N[C@H]1[C@H](O[C@H]2[C@H](O)[C@@H](NC(C)=O)C(O)O[C@@H]2CO)O[C@H](CO)[C@@H](O)[C@@H]1O (some centres unmarked)")
0
>>> value_measured("OC[C@H]1O[C@@H](O[C@H]2[C@H](O)[C@@H](O)C(O)O[C@@H]2CO)[C@H](O)[C@@H](O)[C@H]1O (some centres unmarked)")
10
>>> value_measured("OC[C@H]1O[C@@H](O[C@H]2[C@H](O)[C@@H](O)C(O)O[C@@H]2CO)[C@H](O)[C@@H](O)[C@@H]1O (some centres unmarked)")
10

IN: May I ask what kcat (electron donor sugar) has been recorded for OC[C@H]1OC(O)[C@H](O)[C@@H](O)[C@@H]1O (some centres unmarked) ?
OUT: 0

IN: CC(=O)N[C@H]1C(O)O[C@H](CO)[C@@H](O[C@@H]2O[C@H](CO)[C@H](O)[C@H](O)[C@H]2O)[C@@H]1O (some centres unmarked) ?
OUT: 0

IN: "OC[C@H]1O[C@H](O[C@H]2[C@H](O)[C@@H](O)[C@H](O)O[C@@H]2CO)[C@H](O)[C@@H](O)[C@@H]1O" ?
OUT: 0.83

IN: OC[C@H]1O[C@@H](O[C@H]2[C@H](O)[C@@H](O)[C@H](O[C@H]3[C@H](O)[C@@H](O)[C@H](O[C@H]4[C@H](O)[C@@H](O)[C@H](O[C@H]5[C@H](O)[C@@H](O)C(O)O[C@@H]5CO)O[C@@H]4CO)O[C@@H]3CO)O[C@@H]2CO)[C@H](O)[C@@H](O)[C@@H]1O (some centres unmarked) ?
OUT: 8.3

IN: OC1OC[C@@H](O[C@@H]2OC[C@@H](O)[C@H](O)[C@H]2O)[C@H](O)[C@H]1O (some centres unmarked) ?
OUT: 2.15

The reported numbers originate from patent US6033891A.
